assay-notes: viability loss in pontine glioma line – cell-based, SU-DIPG-XXV, MIPE5.0, CellTiter-Glo, qHTS, dose response (AID 1347065);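 note: cells exposed to compound for 48 hours before ATP readout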
conditions-used: CellTiter-Glo ATP luminescence
Results filed as inconclusive are left out. Active and inactive are the calls of the source. No cut-off is given here; in the data, nearly all actives have AC50 up to about 26 µM.
Hi! Could you answer with just one of these? active, inactive

Examples from the recorded data:
Nc1nc(N)c2nc(-c3cccc(O)c3)c(-c3cccc(O)c3)nc2n1
inactive
CCc1cc2c(cc1N1CCC(N3CCOCC3)CC1)C(C)(C)c1[nH]c3cc(C#N)ccc3c1C2=O
active

# input In this assay, the call recorded for `Cc1ccc(C(=O)Nc2cccc(C(F)(F)F)c2)cc1-c1ccc2nc(NCCN3CCOCC3)ncc2c1` was what?
# output active

---

assay-notes: viability loss with induced miR-34 in A549 – imaging, A549 dox-inducible miR-34, nuclei and caspase counts, primary screen (AID 1347080)
conditions-used: A549 miR-34 inducible, Hoechst nuclei count, 48 h; measured here: total cells with miR-34 induction; stronger effect = lower value
We label by threshold. Values of cell count strictly beneath 6000 are 1 (yes). Values of 6000 and up are 0 (no).

These recorded examples may help you get a feel for the data.
c1ccc(COCCCc2cnc[nH]2)cc1
0 (no)
O=C(O)c1ccc(-c2ccc3cc(C45CC6CC(CC(C6)C4)C5)c(O)cc3c2)cc1
1 (yes)
O=C(CCC/C=C\C[C@@H]1[C@@H](/C=C/[C@@H](O)CCc2ccccc2)[C@H](O)C[C@@H]1O)NC(CO)CO
1 (yes)
CC(C)(C)c1cc(C(C)(C)C)c(NC(=O)c2c[nH]c3ccccc3c2=O)cc1O
1 (yes)
CCCCC[C@H](O)/C=C/[C@H]1C(=O)C[C@H](O)[C@@H]1CCCCCCC(=O)O
1 (yes)

# input Consider the compound Cc1cc(C(C)Nc2ccccc2)c2nc(N3CCOCC3)cc(=O)n2c1 (centres undefined) . Is its cell count strictly less than 6000?
# output 1 (yes)

# input Does `Cc1nc(-c2ccc(C(F)(F)F)cc2)sc1C(=O)NCc1ccc(OC(C)(C)C(=O)O)cc1` have cell count strictly under 6000?
# output 1 (yes)

# input Problem: For the compound `Nc1[nH]nc2nc3ccccc3nc12` , is cell count under 6000?
# output 0 (no)

# input Just wondering, is cell count of `CCCCC/C=C\C/C=C\C/C=C\CCCC/C=C\CCC(=O)O` below 6000?
# output 1 (yes)

# input For `Cc1ccc(C(=O)Nc2cccc(C(F)(F)F)c2)cc1Nc1nc(-c2cccnc2)nc2c1cnn2C` , is the recorded cell count below the cut-off of 6000?
# output 1 (yes)

# input Threshold test, cell count < 6000: O=P(O)(O)OC1[C@H](O)[C@H](O)C(O)[C@H](O)[C@H]1O (some centres undefined)
# output 0 (no)

---

assay-notes: MELAS cybrid and Rieske KO viability enhancers – cell-based, MELAS cybrids, Rieske KO mouse fibroblasts, CellTiter-Glo, primary screen (AID 1508586);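 note: z relative to plate mean and SD of compound and empty wells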
conditions-used: Rieske KO mouse fibroblast survival, low glucose, CellTiter-Glo 72 h
parameter-measured: z-score

COc1cccc(Nc2c(C(N)=O)cnc3c(C)cc(S(=O)(=O)c4cccc(C(=O)N(C)C)c4)cc23)c1
-1.7
COc1ccccc1N1CCN(CCN(C(=O)C2CCCCC2)c2ccccn2)CC1
0.432
O=C(Nc1cc2cc[nH]c2cn1)c1ccccc1
-2.76
CN(C)c1ccc(-c2nc3ncc(Cl)c(N4CCN(CC(=O)Nc5nccs5)CC4)c3[nH]2)cc1
-0.697
COC(=O)N1CCN(Cc2cccc(NC(=O)Nc3ccc(C)nc3)c2F)CC1
0.371
CC(C)=CC[C@@H](O)C1=CC(=O)c2c(O)ccc(O)c2C1=O
1.65

For this molecule ( `CC1(COc2ccc3c(c2)ncn3-c2ccc3cccc(N4CCC(N)CC4)c3n2)COC1` ), measured z-score is -3.35

Looking up `O=C(O)c1ccc2c(c1)nc(Nc1cccc(Cl)c1)c1ccncc12` , I found its z-score recorded as -0.116

`Oc1cccc(-c2nc(N3CCOCC3)c3oc4ncccc4c3n2)c1` has a reported z-score of -0.00105

Data point: `OCCn1cc(-c2cnc3nnn(Cc4ccc5ncccc5c4)c3n2)cn1` ; z-score = 0.57

Record summary for `CCc1cncnc1N1CCN(Cc2nc3ccc(C(F)(F)F)cc3[nH]2)CC1` : reported z-score = 0.0669

z-score reading for `c1cc(-c2cnn3cc(-c4ccc(N5CCNCC5)cc4)cnc23)c2cccnc2c1` : 0.379

The molecule identified as `CCNC(=O)c1noc(-c2cc(C(C)C)c(O)cc2O)c1-c1ccc(CN2CCOCC2)cc1` registered its z-score at 0.0253

Field z-score (entry `CCCCC[C@H](O)/C=C/[C@@H]1[C@@H](C/C=C\CCCC(=O)O)[C@@H](O)C[C@H]1O` ) reads -0.344

The molecule identified as `CC(C)C(=O)OCC(=O)[C@@]12O[C@H](C3CCCCC3)O[C@@H]1C[C@H]1[C@@H]3CCC4=CC(=O)C=C[C@]4(C)[C@H]3[C@@H](O)C[C@@]12C` registered its z-score at 1.73
